These data points were gathered from PubChem BioAssay AID463095.

Assay: MIN6 insulinoma cell replication enhancers – MIN6 cells, mouse, confirmation (AID 463095)
Settings: MIN6 beta-cell proliferation, ATPlite luminescence, 48 h, cells kept in 0.2% serum, scaled between 0.2% and 10% serum; series mostly up to 50 µM
Some of the results follow. Active and inactive are the calls of the source.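 Rule for the calls: active = proliferation increase above 40% at any of the four tested concentrations; inactive = the rest.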
Metric Name: outcome

Cc1ccccc1NC(=S)NNC(=O)c1cccc(Br)c1: inactive
Cc1ccccc1CNC(=O)CCC(=O)N1Cc2ccccc2Oc2ncccc21: inactive
Cc1cc(NC(=O)CSc2nc3ccccc3n2CC(C)C)no1: inactive
